Field: log10 Kd. Provide a value for each of the binders that follow.
Molecular target: T1, PUF4 RNA-binding domain (Saccharomyces cerevisiae, UniProt P25339 537-888)
T1 sequence: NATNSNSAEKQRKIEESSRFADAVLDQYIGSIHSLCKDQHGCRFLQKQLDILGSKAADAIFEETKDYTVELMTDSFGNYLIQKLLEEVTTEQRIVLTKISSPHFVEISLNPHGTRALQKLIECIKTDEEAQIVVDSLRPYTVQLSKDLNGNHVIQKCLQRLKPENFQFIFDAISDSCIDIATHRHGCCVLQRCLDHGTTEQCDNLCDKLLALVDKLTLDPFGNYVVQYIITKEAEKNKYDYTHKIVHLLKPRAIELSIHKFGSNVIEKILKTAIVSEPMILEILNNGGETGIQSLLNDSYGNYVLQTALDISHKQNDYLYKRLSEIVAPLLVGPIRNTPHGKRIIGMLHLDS
Experiment: Mg; RNA-MaP; 20 mM Na-HEPES pH 7.4, 30 mM KOAc, 0.75 mM MgCl2, 0.1% Tween-20, 5% glycerol, 0.1 mg/mL BSA, 2 mM DTT; 25 C; 0.0125-409.6 nM protein
Conditions: tags: N-His6-TEV cleaved; C-SNAP kept, Cy3B-labelled; label: tethered on chip by stalled RNA polymerase
Units before log transform: nM; reported quantity: Kd; transform: log10.

ACAAACACUAUAUAUACAACAAAC (ssRNA) [Id_ii_S3_P3E.3_K3.2_C3.2_[C-2A]_[T-1C]_H3.2_A3.1_F3.1_T3.2_[T9C]] | 2.87

Each binder below has a recorded value; state its log10 Kd.
1. Ie_S2_P4E.1_K4.1_C4.1_H4.1_A4.1_[+7CCC]_F4.1_T4.1 (ssRNA) RNA: UUUGAUUAAUAUGAUAUCGUUCUUUCUUGUAUAUCCCUAUUCUUUCUCGAUAUCAUAUUAAUCUUU
2. UCUCUUUGUACCUAGCUCUCUU (ssRNA) [Ic_S1_P5E.1_K5.1_C5.1_H5.1_A5.1_[T5C]_[T6C]_[A7T]_F5.1_[T8A]_[T9G]_[A10C]_T5.1]

1: 1.13; 2: 2.06

Each binder below has a recorded value; state its log10 Kd.
1. Ic_S2_P4E.1_K4.1_C4.1_H4.1_A4.1_[T5A]_[T7C]_F4.1_[T8A]_T4.1 (ssRNA) RNA: UUUGAUUAAUAUGAUAUCGUUCUUUCUUGUAAACAAUUCUUUCUCGAUAUCAUAUUAAUCUUU
2. Ib_S4_P5E.1_K5.1_C5.1_H5.1_[T3C]_A5.1_[T5A]_F5.1_T5.1 (ssRNA) RNA: UUUGACAACUGAUCGUUCUUUCUUGCAAUAUUAUUCUUUCUCGAUCAGUUGUCUUU
3. UCUCUUCUUCUCUUGUAUAUAUAUCUCUU (ssRNA) [Ie_S1_P3E.2_K3.1_C3.2_[+-1TCTCT]_H3.1_A3.1_F3.1_T3.2]
4. Ic_S2_P5E.1_K5.1_C5.1_H5.1_A5.1_[T5C]_[T6C]_F5.1_[T8G]_[A10C]_T5.1 (ssRNA) RNA: UUUGAUUAAUAUGAUAUCGUUCUUUCUUGUACCAGUCUUCUUUCUCGAUAUCAUAUUAAUCUUU
5. Id_ii_S4_P4E.2_K4.1_C4.2_[C-2G]_H4.1_A4.1_F4.1_T4.2_[G10C]_[T11C] (ssRNA) RNA: UUUGACAACUGAUCGUUCUUUCUGUUGUAUAUUACCUUCUUUCUCGAUCAGUUGUCUUU
6. UCUCUUUGUAAAUAACUCUCUU (ssRNA) [Ic_S1_P5E.1_K5.1_C5.1_H5.1_A5.1_[T5A]_[T6A]_[A7T]_F5.1_[T8A]_[T9A]_[A10C]_T5.1]
7. Ie_S4_P3E.2_K3.1_C3.2_H3.1_[+3TTCCT]_A3.1_F3.1_T3.2 (ssRNA) RNA: UUUGACAACUGAUCGUUCUUUCUCUUGUUUCCUAUAUAUAUUCUUUCUCGAUCAGUUGUCUUU
8. UCUCUUUGUCCCUUAUUAUUAUCUCUU (ssRNA) [Ie_S1_P5E.1_K5.1_C5.1_H5.1_[+3CCCTT]_A5.1_F5.1_T5.1]

1. 1.76
2. 2.94
3. 0.77
4. 2.28
5. 0.25
6. 1.49
7. 1.30
8. 2.95

Endpoint output: log10 Kd of UCUCUUUAUGUAUAUUAGUUCUCUU (ssRNA) [Id_ii_S1_P4E.2_K4.1_C4.2_[C-2T]_[T-1A]_H4.1_A4.1_F4.1_T4.2] . Value?
-0.42
